Reported values of inhibition for individual entries
target: Tyrosine-protein kinase JAK1 (Homo sapiens) (UniProt P23458); conditions: at 10 µM
Sequence (P23458 whole entry): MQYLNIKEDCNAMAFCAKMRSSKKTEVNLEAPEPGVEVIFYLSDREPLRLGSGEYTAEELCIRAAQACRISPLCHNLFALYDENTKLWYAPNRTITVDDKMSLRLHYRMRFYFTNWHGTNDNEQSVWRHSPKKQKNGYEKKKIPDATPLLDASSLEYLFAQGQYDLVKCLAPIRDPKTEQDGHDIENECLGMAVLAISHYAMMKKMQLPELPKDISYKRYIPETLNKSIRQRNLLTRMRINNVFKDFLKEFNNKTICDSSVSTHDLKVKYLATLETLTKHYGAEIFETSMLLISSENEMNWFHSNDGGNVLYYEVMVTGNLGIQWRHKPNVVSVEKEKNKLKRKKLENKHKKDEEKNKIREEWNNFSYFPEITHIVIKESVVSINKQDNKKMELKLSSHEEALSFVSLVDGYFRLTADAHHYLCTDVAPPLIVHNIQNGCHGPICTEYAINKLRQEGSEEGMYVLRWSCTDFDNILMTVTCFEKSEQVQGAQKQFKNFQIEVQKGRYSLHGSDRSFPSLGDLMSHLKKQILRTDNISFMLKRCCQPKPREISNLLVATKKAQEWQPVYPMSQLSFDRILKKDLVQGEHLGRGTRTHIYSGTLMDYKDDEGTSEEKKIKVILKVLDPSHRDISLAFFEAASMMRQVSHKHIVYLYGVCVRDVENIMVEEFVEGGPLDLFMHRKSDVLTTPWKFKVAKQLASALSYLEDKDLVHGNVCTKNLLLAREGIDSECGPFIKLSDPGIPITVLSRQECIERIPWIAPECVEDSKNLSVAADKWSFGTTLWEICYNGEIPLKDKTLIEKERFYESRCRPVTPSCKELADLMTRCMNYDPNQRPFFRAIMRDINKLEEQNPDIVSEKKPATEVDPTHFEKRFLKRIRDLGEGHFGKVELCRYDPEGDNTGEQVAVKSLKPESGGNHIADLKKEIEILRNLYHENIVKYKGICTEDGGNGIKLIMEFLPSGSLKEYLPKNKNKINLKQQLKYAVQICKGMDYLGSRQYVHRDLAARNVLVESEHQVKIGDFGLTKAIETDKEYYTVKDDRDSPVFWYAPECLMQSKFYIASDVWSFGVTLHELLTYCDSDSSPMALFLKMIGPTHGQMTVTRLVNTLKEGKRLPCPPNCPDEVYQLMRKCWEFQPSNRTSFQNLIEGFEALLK
parameter: inhibition

>>> valuemeasured("N#Cc1ccc(S(=O)(=O)N2CCC(n3cc(-c4ncnc5[nH]ccc45)cn3)CC2)cc1")
"72.5%"
>>> valuemeasured("O=C(CN1CCCC1)N1CCC(n2cc(-c3ncnc4[nH]ccc34)cn2)CC1")
"55.1%"
>>> valuemeasured("CS(=O)(=O)N1CCC(n2cc(-c3ncnc4[nH]ccc34)cn2)CC1")
"22.1%"
>>> valuemeasured("O=C(CN1CCN(CCO)CC1)N1CCC(n2cc(-c3ncnc4[nH]ccc34)cn2)CC1")
"83%"
>>> valuemeasured("COc1ccc(S(=O)(=O)N2CCC(n3cc(-c4ncnc5[nH]ccc45)cn3)CC2)cc1")
"53.2%"

----------
assay: Solubility of the compound; type: physicochemical
parameter: solubility

>>> valuemeasured("O=S(=O)(c1ccc(F)cc1)N1CCC(n2cc(-c3ncnc4[nH]ccc34)cn2)CC1")
"Insoluble"
>>> valuemeasured("Cc1ccccc1S(=O)(=O)N1CCC(n2cc(-c3ncnc4[nH]ccc34)cn2)CC1")
"Insoluble"
>>> valuemeasured("O=[N+]([O-])c1ccc(S(=O)(=O)N2CCC(n3cc(-c4ncnc5[nH]ccc45)cn3)CC2)cc1")
"Insoluble"
>>> valuemeasured("CCS(=O)(=O)N1CCC(n2cc(-c3ncnc4[nH]ccc34)cn2)CC1")
"Insoluble"
>>> valuemeasured("O=S(=O)(c1ccc(Cl)cc1)N1CCC(n2cc(-c3ncnc4[nH]ccc34)cn2)CC1")
"Insoluble"

----------
biological target: Tyrosine-protein kinase JAK1 (Homo sapiens); conditions: at 10 µM
parameter: inhibition

>>> valuemeasured("CCN(CC)CC(=O)N1CCC(n2cc(-c3ncnc4[nH]ccc34)cn2)CC1")
"38.6%"
>>> valuemeasured("O=C(O)C1CCN(CC(=O)N2CCC(n3cc(-c4ncnc5[nH]ccc45)cn3)CC2)CC1")
"92.5%"
>>> valuemeasured("O=[N+]([O-])c1ccc(S(=O)(=O)N2CCC(n3cc(-c4ncnc5[nH]ccc45)cn3)CC2)cc1")
"99.6%"
>>> valuemeasured("O=C(CN1CCCCC1)N1CCC(n2cc(-c3ncnc4[nH]ccc34)cn2)CC1")
"65.6%"
>>> valuemeasured("CC1CCN(CC(=O)N2CCC(n3cc(-c4ncnc5[nH]ccc45)cn3)CC2)CC1")
"90.3%"
>>> valuemeasured("Cc1ccccc1S(=O)(=O)N1CCC(n2cc(-c3ncnc4[nH]ccc34)cn2)CC1")
"94.7%"

----------
Measured inhibition accompanies every entry in the list below.
molecular target: Tyrosine-protein kinase JAK1 (Homo sapiens) (UniProt P23458); details: at 10 µM
parameter: inhibition (%)

>>> valuemeasured("O=S(=O)(c1ccc(Br)cc1)N1CCC(n2cc(-c3ncnc4[nH]ccc34)cn2)CC1")
60.3
>>> valuemeasured("Cc1ccc(S(=O)(=O)N2CCC(n3cc(-c4ncnc5[nH]ccc45)cn3)CC2)cc1")
92.4
>>> valuemeasured("O=S(=O)(c1ccc(F)cc1)N1CCC(n2cc(-c3ncnc4[nH]ccc34)cn2)CC1")
93.4
>>> valuemeasured("CN1CCN(CC(=O)N2CCC(n3cc(-c4ncnc5[nH]ccc45)cn3)CC2)CC1")
72.8
>>> valuemeasured("O=S(=O)(c1cccc(Br)c1)N1CCC(n2cc(-c3ncnc4[nH]ccc34)cn2)CC1")
72.8

----------
Below, each of the compounds is paired with its reported inhibition value.
target: Tyrosine-protein kinase JAK1 (Homo sapiens); conditions: at 10 µM
parameter: inhibition (%)

>>> valuemeasured("O=[N+]([O-])c1ccccc1S(=O)(=O)N1CCC(n2cc(-c3ncnc4[nH]ccc34)cn2)CC1")
96.6
>>> valuemeasured("CN(C)CC(=O)N1CCC(n2cc(-c3ncnc4[nH]ccc34)cn2)CC1")
46.9
>>> valuemeasured("O=S(=O)(c1ccc(Cl)cc1)N1CCC(n2cc(-c3ncnc4[nH]ccc34)cn2)CC1")
63.7
>>> valuemeasured("CCS(=O)(=O)N1CCC(n2cc(-c3ncnc4[nH]ccc34)cn2)CC1")
95.2
>>> valuemeasured("O=S(=O)(c1cc(F)cc(F)c1)N1CCC(n2cc(-c3ncnc4[nH]ccc34)cn2)CC1")
93.6
>>> valuemeasured("O=S(=O)(C1CC1)N1CCC(n2cc(-c3ncnc4[nH]ccc34)cn2)CC1")
59.4
>>> valuemeasured("O=C(CN1CCOCC1)N1CCC(n2cc(-c3ncnc4[nH]ccc34)cn2)CC1")
69.6
>>> valuemeasured("O=[N+]([O-])c1cccc(S(=O)(=O)N2CCC(n3cc(-c4ncnc5[nH]ccc45)cn3)CC2)c1")
92.4
>>> valuemeasured("O=S(=O)(c1ccccc1)N1CCC(n2cc(-c3ncnc4[nH]ccc34)cn2)CC1")
2.7
